Data origin, for the record: patent US6858591B2

Tested on: E. coli GC 2203
Experiment: In vitro MIC, broth dilution
Format: cell-based
Settings: Escherichia coli, GC2203; E. coli GC 2203; read-out: MIC
measuredProperty: MIC

>>> measurement("COc1ccc(Cn2c(=O)ccn([C@@H]3OC([C@H](O)[C@H](NCCCNC(=O)[C@@H](NC(=O)[C@H](CCCNC(=N)N[N+](=O)[O-])NC(=O)N[C@H](C(=O)OCc4ccccc4)C(C)C)C(C)O)C(=O)O)[C@@H](O)[C@H]3O)c2=O)cc1 (some centres unmarked)")
"> 128 µg/mL"
>>> measurement("COc1ccc(Cn2c(=O)ccn([C@@H]3OC([C@H](O)[C@H](NCCCNC(=O)[C@H](N)CC(C)C)C(=O)OC(C)(C)C)[C@@H](O[Si](C)(C)C(C)(C)C)[C@H]3O[Si](C)(C)C(C)(C)C)c2=O)cc1 (some centres unmarked)")
"> 128 µg/mL"
>>> measurement("COc1ccc(Cn2c(=O)ccn([C@@H]3OC([C@H](O)[C@H](NCCCNC(=O)[C@H](CC(C)C)NC(=O)[C@H](CCCNC(=N)N)NC(=O)N[C@H](C(=O)O)C(C)C)C(=O)O)[C@@H](O)[C@H]3O)c2=O)cc1 (some centres unmarked)")
"> 128 µg/mL"
>>> measurement("CCOC(=O)C(NCCCNC(=O)[C@@H](N)CC(C)C)[C@@H](OC(C)=O)[C@H]1O[C@@H](n2ccc(=O)[nH]c2=O)[C@H](OC(C)=O)[C@@H]1OC(C)=O (some centres unmarked)")
"> 128 µg/mL"
>>> measurement("COc1ccc(Cn2c(=O)ccn([C@@H]3OC([C@H](O)[C@H](NCCCNC(=O)[C@H](C)N)C(=O)OC(C)(C)C)[C@@H](O[Si](C)(C)C(C)(C)C)[C@H]3O[Si](C)(C)C(C)(C)C)c2=O)cc1 (some centres unmarked)")
"> 128 µg/mL"

* * *

Test system: E. faecalis GC 2242
Experiment: In vitro MIC, broth dilution
Format: cell-based
Conditions: Enterococcus faecalis, GC2242
Reported MIC values for a set of molecules
measuredProperty: MIC (µg/mL)

>>> measurement("COc1ccc(Cn2c(=O)ccn([C@@H]3OC([C@H](O)[C@H](NCCCNC(=O)[C@@H](NC(=O)OCc4ccccc4)[C@@H](O)C(C)C)C(=O)OC(C)(C)C)[C@@H](O[Si](C)(C)C(C)(C)C)[C@H]3O[Si](C)(C)C(C)(C)C)c2=O)cc1 (some centres unmarked) [Example 1]")
128
>>> measurement("COc1ccc(Cn2c(=O)ccn([C@@H]3OC([C@H](O)[C@H](NCCCNC(=O)C(NC(=O)[C@H](CCCNC(=N)N[N+](=O)[O-])NC(=O)N[C@H](C(=O)OCc4ccccc4)C(C)C)[C@@H](C)O)C(=O)OC(C)(C)C)[C@@H](O[Si](C)(C)C(C)(C)C)[C@H]3O[Si](C)(C)C(C)(C)C)c2=O)cc1 (some centres unmarked) [Example 30]")
64

* * *

Test system: M. morganii GC 4531
Assay: In vitro MIC, broth dilution
Assay type: cell-based
Conditions: Morganella morganii, GC4531; M. morganii GC 4531; read-out: MIC
measuredProperty: MIC (µg/mL)

>>> measurement("COc1ccc(Cn2c(=O)ccn([C@@H]3OC([C@H](O)[C@H](NCCCNC(=O)[C@H](CC(C)C)NC(=O)OCc4ccccc4)C(=O)OC(C)(C)C)[C@@H](O)[C@H]3O)c2=O)cc1 (stereo partly drawn) [Example 51]")
128
>>> measurement("COc1ccc(Cn2c(=O)ccn([C@@H]3OC([C@H](O)[C@H](NCCCNC(=O)[C@H](N)CC(C)C)C(=O)OC(C)(C)C)[C@@H](O[Si](C)(C)C(C)(C)C)[C@H]3O[Si](C)(C)C(C)(C)C)c2=O)cc1 (stereo partly drawn) [Example 57]")
128
>>> measurement("COc1ccc(Cn2c(=O)ccn([C@@H]3OC([C@H](O)[C@H](NCCCNC(=O)[C@@H](NC(=O)OCc4ccccc4)C(C)O)C(=O)O)[C@@H](O)C3O[Si](C)(C)C(C)(C)C)c2=O)cc1 (stereo in doubt) [Example 46]")
128
>>> measurement("CC(C)C[C@H](NC(=O)OCc1ccccc1)C(=O)NCCCN[C@H](C(=O)O)[C@@H](O)C1O[C@@H](n2ccc(=O)[nH]c2=O)[C@H](O)[C@@H]1O (stereo partly drawn) [Example 55]")
128
>>> measurement("COc1ccc(Cn2c(=O)ccn([C@@H]3OC([C@H](O)[C@H](NCCCNC(=O)[C@@H](N)CCCCN)C(=O)OC(C)(C)C)[C@@H](O[Si](C)(C)C(C)(C)C)[C@H]3O[Si](C)(C)C(C)(C)C)c2=O)cc1 (stereo partly drawn) [Example 19]")
128
>>> measurement("CC(C)C[C@H](NC(=O)OCc1ccccc1)C(=O)NCCCN[C@H](C(=O)OC(C)(C)C)[C@@H](O)C1O[C@@H](n2ccc(=O)[nH]c2=O)[C@H](O[Si](C)(C)C(C)(C)C)[C@@H]1O[Si](C)(C)C(C)(C)C (stereo partly drawn) [Example 6]")
128
>>> measurement("CCOC(=O)C(NCCCNC(=O)[C@@H](N)CC(C)C)[C@@H](OC(C)=O)[C@H]1O[C@H](n2ccc(=O)[nH]c2=O)[C@H](OC(C)=O)[C@@H]1OC(C)=O (stereo partly drawn) [Example 39]")
128
